Parameter: pIC50. Scope: all listed entries.
Target Of Assay: PDK1 (Homo sapiens, UniProt O15530)
Sequence (O15530 1-556): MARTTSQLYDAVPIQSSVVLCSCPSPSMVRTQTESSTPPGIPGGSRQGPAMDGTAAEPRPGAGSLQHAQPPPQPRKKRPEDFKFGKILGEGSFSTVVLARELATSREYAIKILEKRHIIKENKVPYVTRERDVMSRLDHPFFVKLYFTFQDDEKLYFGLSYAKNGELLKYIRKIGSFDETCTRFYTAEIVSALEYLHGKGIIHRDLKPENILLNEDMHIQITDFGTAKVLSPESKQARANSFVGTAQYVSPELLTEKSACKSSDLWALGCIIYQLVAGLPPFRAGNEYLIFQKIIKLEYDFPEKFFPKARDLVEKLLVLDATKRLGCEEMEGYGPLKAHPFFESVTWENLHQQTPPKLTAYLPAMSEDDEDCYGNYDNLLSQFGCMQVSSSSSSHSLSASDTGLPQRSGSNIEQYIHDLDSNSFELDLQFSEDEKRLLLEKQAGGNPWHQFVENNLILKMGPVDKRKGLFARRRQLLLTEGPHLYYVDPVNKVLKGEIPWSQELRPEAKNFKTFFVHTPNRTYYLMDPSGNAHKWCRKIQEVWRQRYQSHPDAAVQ
pIC50: −log10 of the molar value.
Measured Quantity: pIC50

Cc1c(Br)cc(C(=O)N[C@@H](C(=O)Nc2ccc3c(c2)/C(=C/c2cnc[nH]2)C(=O)N3)c2ccccc2)c(=O)n1Cc1ccc(F)c(F)c1 | 6.32
Cc1ccc(C(=O)NCC(=O)Nc2ccc3c(c2)/C(=C/c2cnc[nH]2)C(=O)N3)c(=O)n1Cc1ccc(F)c(F)c1 | 6.99
O=C(CCNC(=O)c1cccn(Cc2ccc(F)c(F)c2)c1=O)Nc1ccc2c(c1)/C(=C/c1cnc[nH]1)C(=O)N2 | 6.99
O=C(CCCNC(=O)c1cccn(Cc2ccc(F)c(F)c2)c1=O)Nc1ccc2c(c1)/C(=C/c1cnc[nH]1)C(=O)N2 | 6.61

###

Tested on: cancer stem cell (CSC) neurospheres obtained from U87MG cells
Assay Remarks: CSC (GBM stem cell) proliferation, MTS assay
Assay type: cell-based
Condition Context: Homo sapiens, U-87 MG, 168 h, seven days of treatment, read-out: IC50 of inhibition of GSC proliferation
Measured Quantity: IC50 (nM)

O=C1Nc2ccc(NC(=O)[C@H](NC(=O)c3cccn(Cc4ccc(F)c(F)c4)c3=O)c3ccccc3)cc2/C1=C/c1cnc[nH]1 [SA16] | 8.33

###

Target Of Assay: UniProtKB O14965
Sequence (O14965 1-403): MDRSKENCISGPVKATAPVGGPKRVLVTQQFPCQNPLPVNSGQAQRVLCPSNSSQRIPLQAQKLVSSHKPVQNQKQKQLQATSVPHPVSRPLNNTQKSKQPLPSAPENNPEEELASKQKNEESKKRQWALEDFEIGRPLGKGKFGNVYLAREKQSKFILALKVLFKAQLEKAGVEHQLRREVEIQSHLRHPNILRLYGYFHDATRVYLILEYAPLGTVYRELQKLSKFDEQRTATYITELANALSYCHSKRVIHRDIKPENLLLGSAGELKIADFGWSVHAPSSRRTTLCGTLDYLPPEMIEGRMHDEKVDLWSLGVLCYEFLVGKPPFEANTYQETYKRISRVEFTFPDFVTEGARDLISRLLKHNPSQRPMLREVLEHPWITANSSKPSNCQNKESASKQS
Parameter: IC50. Scope: all listed entries.
Measured Quantity: IC50 (nM)

O=C(CCCNC(=O)c1cccn(Cc2ccc(F)c(F)c2)c1=O)Nc1ccc2c(c1)/C(=C/c1cnc[nH]1)C(=O)N2 | 611
O=C(CNC(=O)c1cccn(Cc2ccc(F)c(F)c2)c1=O)Nc1ccc2c(c1)/C(=C/c1cnc[nH]1)C(=O)N2 | 289
Cc1ccc(C(=O)NCC(=O)Nc2ccc3c(c2)/C(=C/c2cnc[nH]2)C(=O)N3)c(=O)n1Cc1ccc(F)c(F)c1 | 193
O=C(CCNC(=O)c1cccn(Cc2ccc(F)c(F)c2)c1=O)Nc1ccc2c(c1)/C(=C/c1cnc[nH]1)C(=O)N2 | 2470
